- method description: Test Example 2: rotigotine hydrochloride intravenous injection in rats (group D)
- Type: in vivo
- assay setup: male, SD, rat, plasma, 0.72 mg/kg, rotigotine hydrochloride intravenous 2 ml/kg of 0.36 mg/ml injection, 0.25 h, read-out: Blood concentration in rats
attribute measured: concentration at 0.25 h (ng/mL)
Could you give me the number in ng/mL? Just the number is fine.

Form field concentration at 0.25 h, entry CCCN(CCc1cccs1)[C@H]1CCc2c(O)cccc2C1 [Rotigotine] : 45.4

----------
- method description: Test Example 2: rotigotine hydrochloride intravenous injection in rats (group D)
- Format: in vivo
- assay setup: male, SD, rat, plasma, 0.72 mg/kg, rotigotine hydrochloride intravenous 2 ml/kg of 0.36 mg/ml injection, 12 h, read-out: Blood concentration in rats
- Experimental: Rotigotine hydrochloride: purity of 99.83% Experimental animals: Male SD rats (provided by Shandong Luye Pharma Group Ltd.), weighing 190-280 g, 12 rats in total, 3 rats in each group. Vehicle containing 1% of HPMC was prepared, and rotigotine oleate, rotigotine palmitate and rotigotine stearate were added to the vehicle respectively to provide 10 mg/ml of suspensions (calculated as rotigotine). […]
attribute measured: concentration at 12 h (ng/mL)
Could you give me the number in ng/mL? Just the number is fine.

Form field concentration at 12 h, entry CCCN(CCc1cccs1)[C@H]1CCc2c(O)cccc2C1 [Rotigotine] : 0.04

Reference source for all entries: patent US11111227B2
